# Test system: M14 melanoma
# protocolDetails: NCI-60 one-dose screen, 48 h
# testParameters: 10 µM unless noted
The panel holds about 83,000 compounds, 20% with a hit somewhere; the sample as a whole holds those more often. Activity calls are given as the source filed them. The calls were made as follows: active = growth percent below 10; inactive = the rest.
// allowed return values: active, inactive

Solved entries (count: 3):
compound	testedTarget	qualitativeLabel
CC1CC=CCC1C1OCC(C)(C)CO1 (centres undefined)	M14 melanoma	inactive
CSc1nc2nc3c(c(-c4ccc(C)cc4)c2c(=O)[nH]1)CN(C)C/C3=C\c1ccc(C)cc1	M14 melanoma	inactive
Cc1c2oc3c(C)ccc(C(=O)OC(C)C4NC(=O)C(C(C)C)N(C)C(=O)CN(C)C(=O)C5CCCN5C(=O)C(C(C)C)NC4=O)c3nc-2c(C(=O)OC(C)C2NC(=O)C(C(C)C)N(C)C(=O)CN(C)C(=O)C3CCCN3C(=O)C(C(C)C)NC2=O)c(N)c1=O (centres undefined)	M14 melanoma	active

Which outcome was assigned to `Oc1ccc(/C=N/Nc2nc3ccccc3s2)c(O)c1` in this test?
inactive

Which outcome was assigned to `O=C(N/N=C/c1cccc([N+](=O)[O-])c1)c1ccc(Br)o1` in this test?
inactive

Which outcome was assigned to `Nc1ccc(N=Nc2ccccc2)cc1[N+](=O)[O-]` in this test?
inactive

Which outcome was assigned to `COc1cc(Cl)cc(-c2nn(-c3cccc(NC(=O)c4cc(C(F)(F)F)cc(C(F)(F)F)c4)c3)cc2-c2ccncc2)c1` in this test?
inactive

Which outcome was assigned to CN[C@@H]1C(OC2[C@H](O[C@H]3[C@H](O)[C@@H](O)[C@H](N=C(N)N)[C@@H](O)[C@@H]3N=C(N)N)OC(C)[C@]2(O)CO)OC(CO)C(O)C1O (some centres undefined) in this test?
inactive

Which outcome was assigned to `CCOC(=O)C(Br)=P(c1ccccc1)(c1ccccc1)c1ccccc1` in this test?
inactive

Which outcome was assigned to `COc1ccc(NC(=O)[C@@H]2C[C@H]2c2ccccc2)c(C(N)=O)c1` in this test?
inactive

Which outcome was assigned to `COc1ccc(-c2ccc(O)c(C(=O)/C=C/c3cc(OC)c(OC)c(OC)c3)c2)cc1` in this test?
inactive

Which outcome was assigned to `COc1ccc2cc(C3=CC(=O)CCC3)ccc2c1` in this test?
inactive
